Hey, just so you know, these numbers are from patent US4329339A.

System: Micrococcus flavus ATCC 10240
Assay: MIC, agar streak method, Micrococcus flavus ATCC 10240
Format: cell-based
Details: ATCC10240, Heart infusion agar
READOUT_NAME: MIC (µg/mL)
Expressed in µg/mL, but write only the number.

COMPOUND	ASSAYED_TARGET	READOUT_NAME	READOUT_UNIT	VALUE
COC(=O)C1c2cc3c(c(O)c2C(OC2CC(N(C)C)C(OC4CC5OC6CC(=O)C(C)OC6OC5C(C)O4)C(C)O2)CC1(C)O)C(=O)c1c(O)cccc1C3=O (stereo not shown) [Auramycin B]	Micrococcus flavus ATCC 10240	MIC	µg/mL	0.05
COC(=O)C1c2cc3c(c(O)c2C(OC2CC(N(C)C)C(OC4CC5OC6CC(=O)C(C)OC6OC5C(C)O4)C(C)O2)CC1(O)CC(C)=O)C(=O)c1c(O)cccc1C3=O (stereo not shown) [Sulfurmycin B]	Micrococcus flavus ATCC 10240	MIC	µg/mL	0.1

Give recorded MIC. COC(=O)C1c2cc3c(c(O)c2C(OC2CC(N(C)C)C(OC4CC(O)C(OC5CCC(=O)C(C)O5)C(C)O4)C(C)O2)CC1(O)CC(C)=O)C(=O)c1c(O)cccc1C3=O (stereo not shown) [Sulfurmycin A]
0.2

Give recorded MIC. COC(=O)C1c2cc3c(c(O)c2C(OC2CC(N(C)C)C(OC4CC(O)C(OC5CCC(=O)C(C)O5)C(C)O4)C(C)O2)CC1(C)O)C(=O)c1c(O)cccc1C3=O (stereo not shown) [Auramycin A]
0.1

###

Tested on: P388 leukaemia
Experiment: Antitumour effect against P388 leukaemia in mice
Type: in vivo
Settings: 3.75 mg/kg/day i.p. on days 1, 5 and 9; 1×10^6 P388 cells i.p., CDF1 mice
The entries below are paired with their reported Mean survival (T/C, %).
Expressed in %, but write only the number.

MOLECULE	READOUT_NAME	VALUE
COC(=O)C1c2cc3c(c(O)c2C(OC2CC(N(C)C)C(OC4CC(O)C(OC5CCC(=O)C(C)O5)C(C)O4)C(C)O2)CC1(C)O)C(=O)c1c(O)cccc1C3=O (stereo not shown) [Auramycin A]	Mean survival (T/C, %)	129

Give recorded Mean survival (T/C, %). COC(=O)C1c2cc3c(c(O)c2C(OC2CC(N(C)C)C(OC4CC5OC6CC(=O)C(C)OC6OC5C(C)O4)C(C)O2)CC1(C)O)C(=O)c1c(O)cccc1C3=O (stereo not shown) [Auramycin B]
124

Give recorded Mean survival (T/C, %). COC(=O)C1c2cc3c(c(O)c2C(OC2CC(N(C)C)C(OC4CC(O)C(OC5CCC(=O)C(C)O5)C(C)O4)C(C)O2)CC1(O)CC(C)=O)C(=O)c1c(O)cccc1C3=O (stereo not shown) [Sulfurmycin A]
134

Give recorded Mean survival (T/C, %). COC(=O)C1c2cc3c(c(O)c2C(OC2CC(N(C)C)C(OC4CC5OC6CC(=O)C(C)OC6OC5C(C)O4)C(C)O2)CC1(O)CC(C)=O)C(=O)c1c(O)cccc1C3=O (stereo not shown) [Sulfurmycin B]
124

###

Assay: Acute intraperitoneal toxicity in mice
Conditions: mouse, in vivo, ip, judged 72 hours after a single intraperitoneal injection
The entries below are paired with their reported LD50 at 72 h.

MOLECULE	VALUE
COC(=O)C1c2cc3c(c(O)c2C(OC2CC(N(C)C)C(OC4CC(O)C(OC5CCC(=O)C(C)O5)C(C)O4)C(C)O2)CC1(C)O)C(=O)c1c(O)cccc1C3=O (stereo not shown)	~100 mg/kg
COC(=O)C1c2cc3c(c(O)c2C(OC2CC(N(C)C)C(OC4CC5OC6CC(=O)C(C)OC6OC5C(C)O4)C(C)O2)CC1(O)CC(C)=O)C(=O)c1c(O)cccc1C3=O (stereo not shown)	25 to 50 mg/kg
COC(=O)C1c2cc3c(c(O)c2C(OC2CC(N(C)C)C(OC4CC(O)C(OC5CCC(=O)C(C)O5)C(C)O4)C(C)O2)CC1(O)CC(C)=O)C(=O)c1c(O)cccc1C3=O (stereo not shown)	~100 mg/kg

Now consider the entry below.
Give recorded LD50 at 72 h. COC(=O)C1c2cc3c(c(O)c2C(OC2CC(N(C)C)C(OC4CC5OC6CC(=O)C(C)OC6OC5C(C)O4)C(C)O2)CC1(C)O)C(=O)c1c(O)cccc1C3=O (stereo not shown)
~100 mg/kg
